# experimental.system: chimeric human RORγ-Gal4 receptor (Homo sapiens)
# test.summary: transient transactivation assay (RORγ-Gal4 luciferase reporter)
# Type: cell-based
# study.conditions: Cos-7 cells transfected with RORγ-Gal4 and 5Gal4 pGL3 TK Luc reporter; overnight incubation; T0901317 at 10^-5 M as reference; read-out: IC50
readout.kind: IC50

Cc1cc(C(F)(F)F)cc2c1CC(Cc1c(Cl)ccc(C(=O)N3CCOCC3)c1Cl)N2C (centres unmarked) | 100 to 500 nM
COC1CCC(NC(=O)c2ccc(Cl)c(Cc3nc4c(C)cc(C(F)(F)F)cc4n3C)c2Cl)CC1 (centres unmarked) | 100 to 500 nM
Cc1cc(C#N)cc2c1cc(Cc1c(Cl)ccc(C(=O)NC3COC3)c1Cl)n2C | 100 to 500 nM
Cc1cc(C(F)(F)F)nn2c(C)c(Cc3c(Cl)ccc(C(=O)N4CCN(C5COC5)CC4)c3Cl)nc12 | 100 to 500 nM
Cc1cc(C#N)cc2c1cc(Cc1c(Cl)ccc(C(=O)NC3CCOCC3)c1Cl)n2C | 500 to 1000 nM
Cc1cc(C#N)cc2c1nc(Cc1c(Cl)ccc(C(=O)N3CCOCC3)c1Cl)n2C(C)C | < 100 nM
Cc1cc(C(F)(F)F)cc2c1nc(Cc1c(Cl)ccc(C(=O)N3CCC4(CC3)COC4)c1Cl)n2C | 500 to 1000 nM
Cc1cc(C#N)cc2c1cc(Cc1c(Cl)ccc(O[C@H]3CC[C@H](C(=O)O)CC3)c1Cl)n2C | 100 to 500 nM
Cc1ncc(C(=O)N2CCC(C3COC3)CC2)c(C)c1C(=O)c1cc2c(C)cc(C#N)cc2n1C | 1000 to 10000 nM
Cc1cc(C(F)(F)F)cn2c(C)c(Cc3c(Cl)ccc(C(=O)N4CCC(O)C4)c3Cl)nc12 (centres unmarked) | > 10000 nM
Cc1cc(C#N)cc2c1cc(Cc1c(Cl)ccc(C(=O)N3CCC(N(C)C)C3)c1Cl)n2C (centres unmarked) | 100 to 500 nM
Cc1cc(C(F)(F)F)cn2c(C)c(Cc3c(Cl)ccc(C(=O)N4CCN(C5COC5)CC4)c3Cl)nc12 | 100 to 500 nM
Cc1cc(OC(F)(F)F)cc2c1c(Cc1c(Cl)cnc(C(=O)N3CCC(CC(=O)O)CC3)c1Cl)cn2C | < 100 nM
O=C(O)CC1CCN(C(=O)c2ccc(Cl)c(Cn3ccc4cccc(Cl)c43)c2Cl)CC1 | < 100 nM
COCC1CCN(C(=O)c2ccc(Cl)c(Cc3nc4c(C)cc(C(F)(F)F)cc4n3C)c2Cl)CC1 | 100 to 500 nM
Cc1cc(C(F)(F)F)cc2c1nc(Cc1c(Cl)ccc(CN3CCC(O)CC3)c1Cl)n2C | 100 to 500 nM
Cc1cc(C#N)cc2c1cc(Cc1c(Cl)ccc(O[C@H]3CC[C@@H](C(=O)O)CC3)c1Cl)n2C | 500 to 1000 nM
Cc1cc(Br)cc2c1cc(Cc1c(Cl)ccc(C(=O)N3CCOCC3)c1Cl)n2C | < 100 nM
Cc1cc(C(F)(F)F)cc2c(C)n(Cc3c(Cl)ccc(C(=O)N4CCC(CC(=O)O)CC4)c3Cl)nc12 | < 100 nM
Cc1cc(C#N)cc2c1cc(Cc1c(Cl)ccc(C(=O)N3CCN(C(C)C)CC3)c1Cl)n2C | < 100 nM
Cc1cc(C#N)cc2c1cc(Cc1c(Cl)ccc(O[C@H]3C[C@@H](C(=O)O)C3)c1Cl)n2C | 500 to 1000 nM
Cc1cc(C#N)cc2c1nc(Cc1c(Cl)ccc(C(=O)N3CCC(N(C)C)CC3)c1Cl)n2C | 1000 to 10000 nM
Cc1cc(C(F)(F)F)nn2c(C)c(Cc3c(Cl)ccc(C(=O)N4CCC(C5COC5)CC4)c3Cl)nc12 | < 100 nM
Cc1cc(C(F)(F)F)cc2c1cc(Cc1c(Cl)cnc(C(=O)N3CCC(CC(=O)O)CC3)c1Cl)n2C | < 100 nM
Cc1cn(Cc2c(Cl)ccc(C(=O)N3CC[C@@H](C(=O)O)[C@@H](C)C3)c2Cl)c2c(C)cc(OC(F)(F)F)cc12 | < 100 nM
O=C(O)CC1CCN(C(=O)c2ccc(Cl)c(Cn3ccc4cc(OC(F)(F)F)ccc43)c2Cl)CC1 | < 100 nM
Cc1nc(C(F)(F)F)cc2c1cc(Cc1c(Cl)ccc(C(=O)N3CCN(C4COC4)CC3)c1Cl)n2C | < 100 nM
Cn1c(Cc2c(Cl)ccc(C(=O)N3CCC(O)CC3)c2Cl)cc2ccc(C(F)(F)F)cc21 | < 100 nM
Cc1ccc(C(=O)N2CCOCC2)c(C)c1Cc1cc2c(C)cc(C#N)cc2n1C | 100 to 500 nM
Cc1nn(C(=O)c2c(Cl)ccc(C(=O)N3CCC(CC(=O)O)CC3)c2Cl)c2c(C)cc(C(F)(F)F)cc12 | < 100 nM
CC1CN(C(=O)c2ccc(Cl)c(Cc3cc4ccc(OC(F)(F)F)cc4n3C)c2Cl)CCC1C(=O)O (centres unmarked) | < 100 nM
Cc1cc(C#N)cc2c1cc(Cc1c(Cl)ccc(C(=O)N3CCC(CO)C3)c1Cl)n2C (centres unmarked) | 100 to 500 nM

* * *

Entries and their pIC50 values follow.
# experimental.system: chimeric human RORγ-Gal4 receptor (Homo sapiens, UniProt P51449)
# Sequence (P51449 269-508 limits assumed, change not shown): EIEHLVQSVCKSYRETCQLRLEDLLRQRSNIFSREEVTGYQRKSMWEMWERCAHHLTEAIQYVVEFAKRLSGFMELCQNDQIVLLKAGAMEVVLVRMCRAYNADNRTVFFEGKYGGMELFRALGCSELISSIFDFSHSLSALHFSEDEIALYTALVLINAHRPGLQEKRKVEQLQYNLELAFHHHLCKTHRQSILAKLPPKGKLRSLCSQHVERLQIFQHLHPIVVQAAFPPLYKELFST
# test.summary: transient transactivation assay (RORγ-Gal4 luciferase reporter)
# Assay type: cell-based
# study.conditions: Cos-7 cells transfected with RORγ-Gal4 and 5Gal4 pGL3 TK Luc reporter; overnight incubation; T0901317 at 10^-5 M as reference; read-out: IC50
pIC50: −log10 of the molar value.
readout.kind: pIC50

CCn1c(Cc2c(Cl)ccc(C(=O)N3CCOCC3)c2Cl)cc2c(C)cc(C(F)(F)F)cc21 [Example D-1] | > 7.00
Cn1c(Cc2c(Cl)ccc(C(=O)N3CCOCC3)c2Cl)cc2ccc(C#N)cc21 [Example AC] | 6.30 to 7.00
CC(=O)Nc1cc(C)c2cc(Cc3c(Cl)ccc(C(=O)N4CCOCC4)c3Cl)n(C)c2c1 [Example FK] | > 7.00
Cc1cc(C(F)(F)F)cc2c1cc(Cc1c(Cl)ccc(C(=O)N3CCC(S(C)(=O)=O)CC3)c1Cl)n2C [Example A1-11] | > 7.00
Cc1cc(C#N)cc2c1cc(C(=O)c1c(Cl)ccc(C(=O)N3CCOCC3)c1Cl)n2C [Example AD] | 6.30 to 7.00
Cc1cc(C(F)(F)F)cc2c1cc(Cc1c(Cl)ccc(C(=O)N3CCC(C(=O)O)C(F)C3)c1Cl)n2C (centres unmarked) [Example BA] | > 7.00
COC1CCN(Cc2ccc(Cl)c(Cc3nc4c(C)cc(C(F)(F)F)cc4n3C)c2Cl)CC1 [BW-2] | 6.30 to 7.00
Cc1cc(C(F)(F)F)cc2c1nc(Cc1c(Cl)ccc(C(=O)N3CCC(N(C)C)CC3)c1Cl)n2C [BJ-30] | 6.30 to 7.00

* * *

Listed here are compounds together with their documented pIC50.
# experimental.system: chimeric human RORγ-Gal4 receptor (Homo sapiens, UniProt P51449)
# test.summary: transient transactivation assay (RORγ-Gal4 luciferase reporter)
# Type: cell-based
# study.conditions: Cos-7 cells transfected with RORγ-Gal4 and 5Gal4 pGL3 TK Luc reporter; overnight incubation; T0901317 at 10^-5 M as reference; read-out: IC50
pIC50: −log10 of the molar value.
readout.kind: pIC50

Cc1cc(C#N)cc2c1nc(Cc1c(Cl)ccc(C(=O)N3CCN(C4COC4)CC3)c1Cl)n2C [BN-11] | 6.00 to 6.30
Cn1c(Cc2c(Cl)ccc(C(=O)N3CCC(C(=O)O)CC3)c2Cl)cc2c(F)cc(C3CC3)cc21 [Example FN] | > 7.00
Cc1cc(C)c2nc(Cc3c(Cl)ccc(C(=O)N4CCOCC4)c3Cl)n(C)c2c1 [Example BO] | 6.00 to 6.30
Cc1cn(Cc2c(Cl)ccc(C(=O)N3CCC(CC(=O)O)CC3)c2Cl)c2c(C)cc(OC(F)(F)F)cc12 [EG] | > 7.00
Cc1cc(C(F)(F)F)cc2c1cc(Cc1c(Cl)ccc(C(=O)N3CC(C)(C(=O)O)C3)c1Cl)n2C [Example B-5] | 6.30 to 7.00
Cc1cc(C(F)(F)F)cc2c1nc(Cc1c(Cl)ccc(C(=O)N3CCC(CC(C)(C)O)CC3)c1Cl)n2C [BJ-14] | 6.30 to 7.00
COCCN1CCN(C(=O)c2ccc(Cl)c(Cc3cc4c(C)cc(C(F)(F)F)cc4n3C)c2Cl)CC1 [A] | > 7.00
Cc1cc(C(F)(F)F)cc2ccn(C(=O)c3c(Cl)ccc(C(=O)N4CCC(CC(=O)O)CC4)c3Cl)c12 [ES] | > 7.00
Cc1cc(Cl)nc2c1cc(Cc1c(Cl)ccc(C(=O)N3CCOCC3)c1Cl)n2C [CM1] | > 7.00
COC(c1c(C)ccc(C(=O)N2CCOCC2)c1C)c1cc2c(C)cc(C(F)(F)F)cc2n1C (stereo not shown) [Example K1] | 6.30 to 7.00
COCCN1CCN(Cc2ccc(Cl)c(Cc3nc4c(C)cc(C(F)(F)F)cc4n3C)c2Cl)CC1 [BW-9] | 6.30 to 7.00
Cc1cc(C(F)(F)F)cc2c1cc(Cc1c(Cl)ccc(C(=O)N3CC[C@H](C(=O)O)[C@@H](C)C3)c1Cl)n2C [Example B-26] | > 7.00
Cc1cc(C(F)(F)F)cc2c1nc(Cc1c(Cl)ccc(C(=O)N3CCC(CCO)CC3)c1Cl)n2C [BJ-16] | 6.30 to 7.00
Cc1cc(C(F)(F)F)cc2c1c(Cc1c(Cl)cnc(C(=O)N3CCC(CC(=O)O)CC3)c1Cl)cn2C [DW] | > 7.00
Cc1cc(C#N)cc2c1cc(Cc1c(Cl)cnc(C(=O)N3CCC(CC(=O)O)CC3)c1Cl)n2C [Example BG] | 6.00 to 6.30
Cn1c(Cc2c(Cl)ccc(C(=O)N3CCC(CC(=O)O)CC3)c2Cl)cc2c(Cl)cc(C#N)cc21 [Example R] | > 7.00
Cc1cc(C(F)(F)F)cc2c1nc(Cc1c(Cl)ccc(CN3CCC(N(C)C)CC3)c1Cl)n2C [BW-16] | 5.00 to 6.00
O=C(O)CC1CCN(C(=O)c2ccc(Cl)c(Cn3ccc4cc(C(F)(F)F)ccc43)c2Cl)CC1 [EI-4] | > 7.00
Cc1cc(OC(F)F)cc2c1cc(Cc1c(Cl)ccc(C(=O)N3CCC(CC(=O)O)CC3)c1Cl)n2C [Example FF] | > 7.00
Cc1cc(C(F)(F)F)cc2c1cc(Cc1c(Cl)ncc(C(=O)N3CCC(CC(=O)O)CC3)c1Cl)n2C [Example B-22] | > 7.00
Cc1cc(OC(F)(F)F)cc2c1c(Cc1c(Cl)ncc(C(=O)N3CCC(CC(=O)O)CC3)c1Cl)cn2C [DY] | > 7.00
Cc1cc(C(F)(F)F)cc2c1cc(Cc1c(Cl)ccc(C(=O)N3CCC(CC(=O)O)C3)c1Cl)n2C (stereo not shown) [Example B-6] | > 7.00
